target_or_test_system: His-BIR3 (241-356, XIAP) (Homo sapiens, UniProt P98170)
Construct: additions of His-BIR3 (241-356, XIAP), fluorescein labeled SMAC peptide
Sequence (P98170 241-356): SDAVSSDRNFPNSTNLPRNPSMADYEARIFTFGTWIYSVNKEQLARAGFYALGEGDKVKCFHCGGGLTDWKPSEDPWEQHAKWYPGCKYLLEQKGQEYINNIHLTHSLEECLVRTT
protocol_text: XIAP-BIR3/SMAC Homogeneous Time Resolved Fluorescence (HTRF) Assay
Format: binding
measurement_context: Table 4
pIC50: −log10 of the molar value.
# pIC50 annotations

compound	pIC50
CN[C@@H](C)C(=O)N[C@H](C(=O)N1C[C@@H]2C[C@H]1C(=O)N[C@@H](Cc1ccc3ccccc3c1)C(=O)N[C@H](C(=O)O)Cc1ccc(cc1)OCc1cn(nn1)[C@H]1C[C@@H](C(=O)N[C@@H](Cc3ccc4ccccc4c3)C(=O)N[C@H](C(=O)NS(=O)(=O)CCCC(=O)O)Cc3ccc(cc3)OCc3cn2nn3)N(C(=O)[C@@H](NC(=O)[C@H](C)NC)C(C)(C)C)C1)C(C)(C)C [Compound 1045]	> 8.00
CN[C@@H](C)C(=O)N[C@H](C(=O)N1C[C@@H]2C[C@H]1C(=O)N[C@@H](Cc1ccc3ccccc3c1)C(=O)N[C@H](C(=O)O)Cc1ccc(cc1)-c1cn(nn1)[C@H]1C[C@@H](C(=O)N[C@@H](Cc3ccc4ccccc4c3)C(=O)N[C@H](C(=O)O)Cc3ccc(cc3)OCc3cn2nn3)N(C(=O)[C@@H](NC(=O)[C@H](C)NC)C(C)(C)C)C1)C(C)(C)C [Compound 1015]	7.00 to 8.00
CN[C@@H](C)C(=O)N[C@H](C(=O)N1C[C@@H]2C[C@H]1C(=O)N[C@@H](Cc1ccc3ccccc3c1)C(=O)N[C@H](C(=O)O)Cc1ccc(cc1)OCc1cn(nn1)[C@H]1C[C@@H](C(=O)N[C@@H](Cc3ccc4ccccc4c3)C(=O)N[C@H](C(=O)O)Cc3ccc(cc3)OCCc3cn2nn3)N(C(=O)[C@@H](NC(=O)[C@H](C)NC)C(C)(C)C)C1)C(C)(C)C [Compound 1017]	> 8.00
CN[C@@H](C)C(=O)N[C@H](C(=O)N1C[C@@H]2C[C@H]1C(=O)N[C@@H](Cc1ccc3ccccc3c1)C(=O)N[C@H](C(=O)O)Cc1ccc(cc1)NC(=O)c1cn(nn1)[C@H]1C[C@@H](C(=O)N[C@@H](Cc3ccc4ccccc4c3)C(=O)N[C@H](C(=O)O)Cc3ccc(cc3)OCc3cn2nn3)N(C(=O)[C@@H](NC(=O)[C@H](C)NC)C(C)(C)C)C1)C(C)(C)C [Compound 1014]	> 8.00
CN[C@@H](C)C(=O)N[C@H](C(=O)N1CCN2C[C@H]1C(=O)N[C@@H](Cc1ccc3ccccc3c1)C(=O)N[C@H](C(=O)O)Cc1cn(nn1)CC(=O)N1CCN(C(=O)[C@@H](NC(=O)[C@H](C)NC)C(C)(C)C)[C@@H](C1)C(=O)N[C@@H](Cc1ccc3ccccc3c1)C(=O)N[C@H](C(=O)O)Cc1cn(nn1)CC2=O)C(C)(C)C [Compound 1051]	< 7.00
CN[C@@H](C)C(=O)N[C@H](C(=O)N1C[C@@H]2C[C@H]1C(=O)N[C@@H](Cc1ccc3ccccc3c1)C(=O)N[C@H](C(=O)NS(=O)(=O)C1CC1)Cc1ccc(cc1)OCc1cn(nn1)[C@H]1C[C@@H](C(=O)N[C@@H](Cc3ccc4ccccc4c3)C(=O)N[C@H](C(=O)NS(=O)(=O)C3CC3)Cc3ccc(cc3)OCc3cn2nn3)N(C(=O)[C@@H](NC(=O)[C@H](C)NC)C(C)(C)C)C1)C(C)(C)C [Compound 148]	> 8.00
CN[C@@H](C)C(=O)N[C@H](C(=O)N1C[C@@H]2C[C@H]1C(=O)N[C@@H](Cc1ccc3ccccc3c1)C(=O)N[C@H](C(=O)O)Cc1ccc(cc1)OCc1cn(nn1)[C@H]1C[C@@H](C(=O)N[C@@H](Cc3ccc4ccccc4c3)C(=O)N[C@H](C(=O)N(C)CC(=O)O)Cc3ccc(cc3)OCc3cn2nn3)N(C(=O)[C@@H](NC(=O)[C@H](C)NC)C(C)(C)C)C1)C(C)(C)C [Compound 1020]	7.00 to 8.00
CN[C@@H](C)C(=O)N[C@H](C(=O)N1C[C@@H]2C[C@H]1C(=O)N[C@@H](Cc1ccc3ccccc3c1)C(=O)N[C@H](C(=O)O)Cc1ccc(cc1)OCc1cn(nn1)[C@H]1C[C@@H](C(=O)N[C@@H](Cc3ccc4ccccc4c3)C(=O)N[C@H](C(=O)NS(=O)(=O)c3ccc(OC(F)(F)F)cc3)Cc3ccc(cc3)OCc3cn2nn3)N(C(=O)[C@@H](NC(=O)[C@H](C)NC)C(C)(C)C)C1)C(C)(C)C [Compound 1036]	7.00 to 8.00
CN[C@@H](C)C(=O)N[C@H](C(=O)N1C[C@@H]2C[C@H]1C(=O)N[C@@H](Cc1ccc3ccccc3c1)C(=O)N[C@H](C(=O)O)Cc1ccc(cc1)OCc1cn(nn1)[C@H]1C[C@@H](C(=O)N[C@@H](Cc3ccc4ccccc4c3)C(=O)N[C@H](C(=O)N[C@@H](CCCCN)C(=O)N[C@@H](CO)C(=O)O)Cc3ccc(cc3)OCc3cn2nn3)N(C(=O)[C@@H](NC(=O)[C@H](C)NC)C(C)(C)C)C1)C(C)(C)C [Compound 1034]	7.00 to 8.00
CN[C@@H](C)C(=O)N[C@H](C(=O)N1C[C@@H]2C[C@H]1C(=O)N[C@@H](Cc1ccc3ccccc3c1)C(=O)N[C@H](C(=O)O)Cc1ccc(cc1)OCc1cn(nn1)[C@H]1C[C@@H](C(=O)N[C@@H](Cc3ccc4ccccc4c3)C(=O)N[C@H](C(=O)NS(=O)(=O)c3ccc4ccccc4c3)Cc3ccc(cc3)OCc3cn2nn3)N(C(=O)[C@@H](NC(=O)[C@H](C)NC)C(C)(C)C)C1)C(C)(C)C [Compound 1039]	7.00 to 8.00
